B1: library; numbered along this chain (parent)
chain: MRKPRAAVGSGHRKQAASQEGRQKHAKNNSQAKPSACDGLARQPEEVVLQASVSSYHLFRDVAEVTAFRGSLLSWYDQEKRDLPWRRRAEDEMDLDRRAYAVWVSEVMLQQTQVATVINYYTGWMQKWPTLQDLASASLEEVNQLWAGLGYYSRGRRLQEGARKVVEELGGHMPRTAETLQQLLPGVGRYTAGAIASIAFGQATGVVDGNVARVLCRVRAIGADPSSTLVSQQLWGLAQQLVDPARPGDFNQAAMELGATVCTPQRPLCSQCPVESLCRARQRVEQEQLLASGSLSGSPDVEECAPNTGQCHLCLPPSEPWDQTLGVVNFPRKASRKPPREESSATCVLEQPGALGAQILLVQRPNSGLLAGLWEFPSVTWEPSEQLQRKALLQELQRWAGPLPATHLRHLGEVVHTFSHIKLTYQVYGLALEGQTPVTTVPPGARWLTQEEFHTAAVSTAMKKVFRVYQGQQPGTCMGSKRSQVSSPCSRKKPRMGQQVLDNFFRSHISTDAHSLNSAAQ

# Variants of: B1
# TEST_PROTOCOL: 8OG:A repair function score (normalized; synonymous = 0, nonsense = -1) (normalized log-likelihood score); higher = more repair activity (WT-like);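 note: cells sorted at 72 h after reporter transfection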
# CONDITION_NOTES: with 8OG:A DNA repair reporter (GFP) in HEK-293 MUTYH KO cells
The label depends only on 8OG:A repair function score: criterion met if it is at least -0.05, criterion not met if it is smaller.

Problem: Item S52R with 8OG:A repair function score of -0.05 or above?
Result: criterion met

Problem: Item P352K with 8OG:A repair function score of -0.05 or above?
Result: criterion met

Problem: Item S292R with 8OG:A repair function score of -0.05 or above?
Result: criterion met

Problem: Item S296D with 8OG:A repair function score of -0.05 or above?
Result: criterion met

Problem: Item L268S with 8OG:A repair function score of -0.05 or above?
Result: criterion met

Problem: Item A199C with 8OG:A repair function score of -0.05 or above?
Result: criterion met

Problem: Item R88D with 8OG:A repair function score of -0.05 or above?
Result: criterion not met

Problem: Item W128G with 8OG:A repair function score of -0.05 or above?
Result: criterion not met

Problem: Item L58Y with 8OG:A repair function score of -0.05 or above?
Result: criterion met

Problem: Item P494G with 8OG:A repair function score of -0.05 or above?
Result: criterion met

Problem: Item D77A with 8OG:A repair function score of -0.05 or above?
Result: criterion met

Problem: Item R156H with 8OG:A repair function score of -0.05 or above?
Result: criterion not met

Problem: Item V301F with 8OG:A repair function score of -0.05 or above?
Result: criterion not met

Problem: Item L268R with 8OG:A repair function score of -0.05 or above?
Result: criterion met

Problem: Item E168P with 8OG:A repair function score of -0.05 or above?
Result: criterion not met

Problem: Item S105C with 8OG:A repair function score of -0.05 or above?
Result: criterion not met

Data origin, for the record: the supplement of paper PMC11908140
